IC50, Chymotrypsinogen A (Bos taurus, UniProt P00766): measured values
Recorded metric: IC50

Molecule	Recorded metric	Observed measurement
CC(NC(=O)[C@H](CC(=O)N(C)C)NC(=O)[C@@H](NC(=O)CC(C)(C)C)C(C)(C)C)C(=O)C(F)(F)C(F)(F)F (stereo not given in full)	IC50	14 µM
Cc1cccc2oc(C(=O)C(C)NC(=O)[C@H](CC(=O)N(C)C)NC(=O)[C@@H](NC(=O)CC(C)(C)C)C(C)(C)C)nc12 (stereo not given in full)	IC50	> 300 µM
Cc1ccc2oc(C(=O)C(C)NC(=O)[C@H](CC(=O)N(C)C)NC(=O)[C@@H](NC(=O)CC(C)(C)C)C(C)(C)C)nc2c1 (stereo not given in full)	IC50	> 300 µM
Cc1cccc2nc(C(=O)C(C)NC(=O)[C@H](CC(=O)N(C)C)NC(=O)[C@@H](NC(=O)CC(C)(C)C)C(C)(C)C)oc12 (stereo not given in full)	IC50	> 300 µM
C[C@H](NC(=O)[C@H](CC(=O)N(C)C)NC(=O)[C@@H](NC(=O)CC(C)(C)C)C(C)(C)C)C(=O)C(F)(F)C(=O)NCc1ccccc1	IC50	> 300 µM
